Molecular target: NRAS Q61R (Homo sapiens (Human), UniProt P01111+P62937, Q61R)
Sequence (P01111 whole entry Q61R): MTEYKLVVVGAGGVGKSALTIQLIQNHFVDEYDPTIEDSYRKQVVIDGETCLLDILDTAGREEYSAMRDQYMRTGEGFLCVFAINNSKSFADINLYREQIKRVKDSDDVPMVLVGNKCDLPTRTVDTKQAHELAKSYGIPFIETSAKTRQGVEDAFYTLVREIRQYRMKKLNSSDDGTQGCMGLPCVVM
Sequence (P62937 whole entry): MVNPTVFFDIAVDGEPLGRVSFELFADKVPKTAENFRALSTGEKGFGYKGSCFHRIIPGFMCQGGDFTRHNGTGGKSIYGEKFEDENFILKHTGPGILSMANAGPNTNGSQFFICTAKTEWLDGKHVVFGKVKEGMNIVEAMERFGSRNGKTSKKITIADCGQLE
Assay: Ras-Raf (BRAF RBD) disruption / FRET / MOA assay, NRAS Q61R
Format: biochemical
Details: NRAS Q61R; Ras-Raf disruption/FRET/MOA assay; read-out: IC50* NRAS Q61R FRET data
Method: The purpose of this biochemical assay is to measure the ability of test compounds to facilitate ternary complex formation between a nucleotide-loaded Ras isoform and cyclophilin A; the resulting ternary complex disrupts binding to a BRAF^RBD construct, inhibiting Ras signaling through a RAF effector. […]. Compound is present in plate wells as a 10-point 3-fold dilution series starting at a final concentration of 30 μM. […]

# COMPOUND, IC50
measured = [
    ("C=CC(=O)N1CCOC2(C1)CN(C(=O)N(C)[C@H](C(=O)N[C@H]1Cc3cccc(c3)-c3ccc4c(c3)c(c(-c3cccnc3[C@H](C)OC)n4CC(F)(F)F)CC(C)(C)COC(=O)[C@@H]3CCCN(N3)C1=O)C(C)C)C2 (atropisomer, axis not shown)", "100 to 1000 nM"),
    ("CCn1c(-c2cccnc2[C@H](C)OC)c2c3cc(ccc31)-c1csc(n1)C[C@H](NC(=O)[C@H](C(C)C)N(C)C(=O)N1CCC3(CC1)CN(C(=O)/C=C/CN1CCCCC1)C3)C(=O)N1CCC[C@H](N1)C(=O)OCC(C)(C)C2 (atropisomer, axis not shown)", "100 to 1000 nM"),
    ("C=CC(=O)N1CC[C@H](C(=O)N(C)[C@H](C(=O)N[C@H]2Cc3cc(cc(C(F)F)c3)-c3ccc4c(c3)c(c(-c3cccnc3[C@H](C)OC)n4CC)CC(C)(C)COC(=O)[C@@H]3CCCN(N3)C2=O)C(C)C)C1 (atropisomer, axis not shown)", "1000 to 10000 nM"),
    ("C=CC(=O)N1CC[C@H](C(=O)N(C)[C@H](C(=O)N[C@H]2Cc3cccc(c3)-c3ccc4c(c3)c(c(-c3cccnc3[C@H](C)OC)n4CC)CC(C)(C)COC(=O)[C@@H]3CCCN(N3)C2=O)C(C)(C)F)C1 (atropisomer, axis not shown)", "1000 to 10000 nM"),
    ("C=CC(=O)N1CCOC2(CCN(C(=O)N(C)[C@H](C(=O)N[C@H]3Cc4nc(n(C)n4)-c4ccc5c(c4)c(c(-c4cccnc4[C@H](C)OC)n5CC(F)(F)F)CC(C)(C)COC(=O)[C@@H]4CCCN(N4)C3=O)C(C)C)CC2)C1 (atropisomer, axis not shown)", "100 to 1000 nM"),
    ("CCn1c(-c2cccnc2[C@H](C)OC)c2c3cc(ccc31)-c1cccc(c1)C[C@H](NC(=O)[C@H](C(C)C)N1CO[C@@]3(CCN(C(=O)C#CC(C)(C)N4CCC4)C3)C1=O)C(=O)N1CCC[C@H](N1)C(=O)OCC(C)(C)C2 (atropisomer, axis not shown)", "> 10000 nM"),
    ("C=CC(=O)N1CC[C@H](C(=O)N(C)[C@H](C(=O)N[C@H]2Cc3cc(O)cc(c3)-c3ccc4c(c3)c(c(-c3cnc(N(C)C)s3)n4CC)CC(C)(C)COC(=O)[C@@H]3CCCN(N3)C2=O)C(C)C)C1", "> 10000 nM"),
]
